# Lookup of reported IC50 keyed by entry
subject-of-test: GDP-loaded KRAS G12D (Homo sapiens (Human), UniProt P01116, G12D)
Sequence (P01116-2 other isoform, or with tags, fused parts or gaps G12D): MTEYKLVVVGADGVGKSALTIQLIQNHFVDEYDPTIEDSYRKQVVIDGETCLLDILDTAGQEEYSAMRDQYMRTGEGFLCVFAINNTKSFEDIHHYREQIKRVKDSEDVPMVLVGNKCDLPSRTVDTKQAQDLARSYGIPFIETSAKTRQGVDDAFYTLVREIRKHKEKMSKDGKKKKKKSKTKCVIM
assay-summary: KRAS G12D (GDP) biochemical assay (TR-FRET probe displacement)
test-parameters: 2 hours

structure-smiles-string	unit	IC50
C#Cc1c(F)ccc2cc(O)cc(-c3nc4c5c(nc(OC[C@@]67CCCN6[C@H](COC(C(F)(F)F)(C(F)(F)F)C(F)(F)F)CC7)nc5c3F)N3C[C@H]5CC[C@H](N5)[C@H]3CC4)c12	nM	0.2
C#Cc1c(F)ccc2cccc(-c3nc4c5c(nc(OC[C@@]67CCCN6C[C@@]6(CC6(F)F)C7)nc5c3F)N3C[C@H]5CC[C@H](N5)[C@@H]3[C@@H](C)C4)c12	nM	6.8
C#Cc1c(F)ccc2cc(O)cc(-c3nc4c5c(nc(OC[C@@]67CCCN6[C@H](COC(=O)N(C)c6cccc(S(F)(F)(F)(F)F)c6)CC7)nc5c3F)N3C[C@H]5CC[C@H](N5)[C@H]3CO4)c12	nM	2
C#Cc1c(F)ccc2cc(O)cc(-c3cc4c5c(nc(OC[C@@]67CCCN6C[C@H](F)C7)nc5c3F)N3C[C@H]5CC[C@H](N5)[C@H]3CO4)c12	nM	0.6
C#Cc1c(F)ccc2cc(O)cc(-c3nc4c5c(nc(OC[C@@]67CCCN6C[C@H](F)C7)nc5c3F)N3C[C@H]5CC[C@H](N5)[C@H]3CC4(F)F)c12	nM	0.2
